# measurement-description: NCI Yeast Anticancer Drug Screen. Data for the mlh1 rad18 strain (AID 175)
# study-conditions: S. cerevisiae mlh1 rad18 strain growth inhibition; at 50.0 µM
About 79,000 compounds went through this panel and 15% of them were active in at least one assay; those are over-represented in the sample as a whole. Active and inactive are the calls of the source. Cut-off read from the data, not from the text of the source: active = growth inhibition above about 70%; inactive = the rest.
Return exactly one item of active, inactive

Recorded results for 4 compounds are shown here.
compound: c1ccc(COC2C3COC(O3)C(OCc3ccccc3)C2OCc2ccccc2)cc1 (centres undefined)
assigned-label: inactive
//
compound: O=C(/C=C/c1ccc(O)cc1)NCCc1c[nH]c2ccc(O)cc12
assigned-label: inactive
//
compound: O=C1CCC(c2ccccc2)(c2ccccc2)CC1
assigned-label: inactive
//
compound: O=[N+]([O-])c1cccnc1Oc1cccc(C(F)(F)F)c1
assigned-label: inactive

[ask] Call for entry `NC(=O)NNCc1ccccc1` :
[reply] inactive

[ask] Call for entry CCCCCC(O)c1ccc2c(c1)OCO2 (centres undefined) :
[reply] inactive

[ask] Call for entry `COc1ccc(C(=O)C(c2ccc(OCc3ccccc3)cc2)c2ccc(OCc3ccccc3)cc2)cc1` :
[reply] inactive

[ask] Call for entry COC(=O)C(=O)C(C(=O)C(=O)Nc1ccc(C)cc1C)c1nc2ccc(Cl)cc2[nH]c1=O (centres undefined) :
[reply] inactive

[ask] Call for entry `Cc1ccc(N=Nc2ccc(C)cc2NC(=O)c2ccc(Cl)c(Cl)c2)cc1` :
[reply] inactive

[ask] Call for entry `CS(=O)(=O)NCCBr` :
[reply] inactive

[ask] Call for entry C=C(C(=O)O)C1CC[C@@]2(C)CC(O)CC(=C)C2C1 (some centres undefined) :
[reply] inactive

[ask] Call for entry `COc1cc(/C=C\C(=O)c2cccc([N+](=O)[O-])c2)cc(OC)c1OC` :
[reply] inactive

[ask] Call for entry `CNc1ncnc2nc[nH]c12` :
[reply] inactive

----------
# measurement-description: NCI Yeast Anticancer Drug Screen. Data for the bub3 strain (AID 167)
# study-conditions: S. cerevisiae bub3 mutant strain, at 50.0 µM, active compounds read high
The panel holds about 79,000 compounds, 15% with a hit somewhere; the sample as a whole holds those more often. Activity calls are given as the source filed them. No stated cut-off is given here; in the data, active means growth inhibition above about 70%; inactive means the rest.
property-measured: growth inhibition

`O=C(O)c1ccccn1` yielded growth inhibition of -3.85% (inactive)

CC1C2(C)OC(=N)C(C#N)(C(c3ccco3)O2)C1(C#N)C#N (configuration not stated) yielded growth inhibition of -9.65% (inactive)

`Cc1ccc(OC(=O)c2ccccc2)cc1CC(Cl)(Cl)Cl` yielded growth inhibition of 2.8% (inactive)

`CSc1ccc(NC(=O)CCc2ccccc2)cc1` yielded growth inhibition of 41.5% (inactive)

`COc1ccc(/C(C)=N/NC(=O)CC(=O)N(C(=O)c2ccccc2)c2ccc(C)cc2)cc1` yielded growth inhibition of -27.2% (inactive)

`CSc1cnn(-c2ccccc2)[n+]1[O-]` yielded growth inhibition of -1.75% (inactive)

`CC(/C=N/N(C)C)=N\N(C)C` yielded growth inhibition of 32.2% (inactive)

`Cc1nnc(Nc2ccc(Cl)c(Cl)c2)s1` yielded growth inhibition of 11.3% (inactive)

`COC(=O)Cc1cccc2c(=O)c(S(=O)(=O)NC(=O)Nc3ccc(Cl)cc3)c(-c3ccccc3)oc12` yielded growth inhibition of 35.4% (inactive)

C=C1CC(CCCCC2CC(=C)C(=O)O2)OC1=O (configuration not stated) yielded growth inhibition of -12.7% (inactive)

`Nc1c(N2CCCCC2)c(=O)nc2[nH]/c(=C\c3ccco3)c(=O)n12` yielded growth inhibition of 8.8% (inactive)

`CON(C)c1nc(N(C)OC)nc(N(C)OC)n1` yielded growth inhibition of -22.9% (inactive)

----------
# measurement-description: NCI Yeast Anticancer Drug Screen. Data for the cln2 rad14 strain (AID 165);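 note: 0% = growth equal to vehicle treated cultures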
# study-conditions: S. cerevisiae cln2 rad14 strain, at 50.0 µM, active compounds read high
Compounds without any hit were thinned out: in the full panel of roughly 79,000, 15% have a hit. Calls of active or inactive are those of the source. No stated cut-off is given here; in the data, active means growth inhibition above about 70%; inactive means the rest.
Measured growth inhibition, listed per entry.

# count of solved cases: 3
molecule: CCCOC(=O)/C(C)=C\c1ccccc1
growth inhibition: 15.3% (inactive)

molecule: c1ccc2c3c([nH]c2c1)CCCCCC3
growth inhibition: 13.2% (inactive)

molecule: CC1=C(C(=O)O)C(C)CC(=O)N1 (stereo not drawn)
growth inhibition: -12.4% (inactive)

CC(O)COc1ccc(OCc2ccccc2)cc1 (stereo not drawn) yielded growth inhibition of 10.2% (inactive)

CCOC(=O)C1=C(C)NC(=O)NC1c1ccc(N(C)C)cc1 (stereo not drawn) yielded growth inhibition of 21.6% (inactive)

CC(=O)OC12C=CC(=O)N1c1ccccc1C(=O)O2 (stereo not drawn) yielded growth inhibition of 29.2% (inactive)

----------
# measurement-description: NCI Yeast Anticancer Drug Screen. Data for the sgs1 mgt1 strain (AID 161);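 note: 0% = growth of cultures given vehicle only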
# study-conditions: S. cerevisiae sgs1 mgt1 strain, at 50.0 µM, active compounds read high
About 79,000 compounds went through this panel and 15% of them were active in at least one assay; those are over-represented in the sample as a whole. Where a SMILES comes first, the peptide text is derived from it. [ ]: non-standard residue; d: D form. Ac5c = NC1(C(=O)O)CCCC1
property-measured: growth inhibition (%)
Your answer should be a plain number; it is taken to be in %.

# count of solved cases: 10
compound: c1ccc(SCCP(CCP(c2ccccc2)c2ccccc2)c2ccccc2)cc1 (configuration not stated)
unit-annotation: %
growth inhibition: 14.3
--
compound: CC(=O)OC12C=CC(=O)N1c1ccccc1C(=O)O2 (configuration not stated)
unit-annotation: %
growth inhibition: 25
--
compound: c1ccc2cc(C3OCC4(CCC4)CO3)ccc2c1
unit-annotation: %
growth inhibition: 3.1
--
compound: CCOC(=O)Cn1nnnc1N
unit-annotation: %
growth inhibition: -5.2
--
compound: C=CCc1cc(Br)ccc1O
unit-annotation: %
growth inhibition: -9.85
--
compound: COc1ccc(N=Nc2ccc(OC)cc2C)c(C)c1
unit-annotation: %
growth inhibition: 1.9
--
compound: [O-]c1c[n+](CC[n+]2cc([O-])on2)no1
unit-annotation: %
growth inhibition: -13.2
--
compound: O=C1OC(c2ccccc2)(C2(c3ccccc3)C=C(c3ccccc3)C(=O)O2)C=C1c1ccccc1 (configuration not stated)
unit-annotation: %
growth inhibition: 0.7
--
compound: C[N+](C)(N)CCS(N)(=O)=O
unit-annotation: %
growth inhibition: 5.6
--
compound: C=CC[N+]12CC=C3COC(=O)C(C)(O)C(C)(O)C(C)C(=O)OC(CC1)C32 (configuration not stated)
unit-annotation: %
growth inhibition: 0.4

`N#C/C(=C/n1c(=S)[nH]c2ccc([N+](=O)[O-])cc21)C(N)=O` yielded growth inhibition of -50.4

COC(=O)C1(NC(=O)C(C)NC(=O)C(CCCCN)NC(=O)C(CC(C)C)NC(C)=O)CCCC1 (configuration not stated) (Ac-LKA[Ac5c]-OMe; configuration not given here) yielded growth inhibition of 13.8

CCCCCCC1C=CC(CCCCCCCC(=O)O)C(/C=C/CCCCCCCC(=O)O)C1CCCCCC (configuration not stated) yielded growth inhibition of -10.3

`COc1ccc(OC)c2cc3c(cc12)C(=O)c1ccccc1C3=O` yielded growth inhibition of 25.2

`COc1ccc(NC(=O)CC(=O)N/N=C/c2ccc(N(CCC#N)S(=O)(=O)c3ccccc3)cc2)cc1` yielded growth inhibition of -29.5

`Cc1nc(C(N)=S)sc1C(=O)CC(=O)C(=O)Nc1ccccc1[N+](=O)[O-]` yielded growth inhibition of 10.8

`Cc1cc(C)c2[nH]c(=O)c(Br)c(C)c2c1` yielded growth inhibition of 34.2

`Nc1n[n+](-c2ccc(Cl)cc2)no1` yielded growth inhibition of 87.4

O=C(Cc1ccccc1)NN1C(=O)C(Cl)C1c1ccccc1 (configuration not stated) yielded growth inhibition of -12.5

`CC1(C)CC(=O)C(C=O)C(=O)C1` yielded growth inhibition of -38.3

`NCCCOC12CC3CC(CC(C3)C1)C2` yielded growth inhibition of 38.8

C=C(C)C1CCC2(CO)C(O)CC3(C)C(CCC4C5(C)CCC(O)C(C)(C)C5CCC43C)C12 (configuration not stated) yielded growth inhibition of -8.75

`CC[n+]1ccc(-c2ccccc2)o1` yielded growth inhibition of 2.25

`CCc1cccc(CC)c1NC(=S)NN` yielded growth inhibition of 41.9

NC(=O)c1cn(C2OC(CO)C(O)C2O)c(=O)[nH]c1=O (configuration not stated) yielded growth inhibition of -0.1

`Cc1ccc(S(=O)(=O)OCC2(COS(=O)(=O)c3ccc(C)cc3)CCC2)cc1` yielded growth inhibition of 0.25

`COc1cc2c(c(OC)c1OC)-c1ccc(SC)c(=O)cc1[C@@H](NC(=O)C(F)(F)F)CC2` yielded growth inhibition of -18.1

`CN1CCn2c(Br)ccc2C1=O` yielded growth inhibition of -1.55

`O=C1c2ccccc2-c2c1c1ccccc1c(=O)n2Cc1ccccc1` yielded growth inhibition of 2.85

`Cc1n(C)c(=O)c2ccccc2[n+]1C` yielded growth inhibition of -7

NC(CSCCC(=O)O)C(=O)O (configuration not stated) yielded growth inhibition of -7.45
